- Test system: HCC-2998 colon
- Method notes: NCI tumour cell line growth inhibition, 48 h
Metric: TGI

What value of measured TGI is listed for `O=c1cc(O)c1=O` ? > 100 µM

// same read-out, input: `CC[C@@]12CC(C(=O)OC)=C3Nc4ccccc4[C@@]34CCN(C[C@H]3O[C@H]31)[C@@H]24` > 100 µM

// same read-out, input: `COc1cc(F)c(F)c(F)c1C(=O)c1cnc(NC2CCN(S(C)(=O)=O)CC2)nc1N` > 21.6 µM

// same read-out, input: `CC1(C)N=C(N)N=C(N)N1c1cccc(CC(=O)Nc2ccccc2)c1` > 100 µM
